- Tested on: HCI-017.E2 (organoid from an ER-positive breast cancer xenograft)
- ASSAY_SUMMARY: CTG-3D luminescence at 96 h relative to day-0 seeding control (ratio to day 0); higher = more growth / less cytotoxicity; PDxO 3D drug screen, 96 h, CTG-3D normalised to day-0 seeding control.
- STATED_CONDITIONS: 1 µM; days in culture: 85
Each entry gets 0 (no) if its CTG-3D luminescence at 96 h stays under 2, and 1 (yes) if its CTG-3D luminescence at 96 h is 2 or above.

>>> answer_label("CS(=O)(=O)c1ccc(C(=O)Nc2ccc(Cl)c(-c3ccccn3)c2)c(Cl)c1")
"1 (yes)"
>>> answer_label("CC1(C)CCC(c2ccc(Cl)cc2)=C(CN2CCN(c3ccc(C(=O)NS(=O)(=O)c4ccc(N[C@H](CCN5CCOCC5)CSc5ccccc5)c(S(=O)(=O)C(F)(F)F)c4)cc3)CC2)C1")
"0 (no)"
>>> answer_label("Cc1nc(-c2cn3c(n2)-c2ccc(-c4cnn(C(C)(C)C(N)=O)c4)cc2OCC3)n(C(C)C)n1")
"0 (no)"
>>> answer_label("C[C@H](NC(=O)CCC(F)(F)F)C(=O)N[C@@H]1C(=O)N(CCO)c2ncccc2-c2ccccc21")
"0 (no)"
>>> answer_label("CC(C)n1nc(-c2ccc3oc(N)nc3c2)c2c(N)ncnc21")
"0 (no)"
>>> answer_label("Cc1cc(Nc2ncnc3ccc(NC4=NC(C)(C)CO4)cc23)ccc1Oc1ccn2ncnc2c1")
"1 (yes)"
>>> answer_label("C[C@]12CC[C@@H]3c4ccc(O)cc4C[C@@H](CCCCCCCCC[S+]([O-])CCCC(F)(F)C(F)(F)F)[C@H]3[C@@H]1CC[C@@H]2O (stereo partly drawn)")
"0 (no)"
>>> answer_label("C[C@@H]1COCCN1c1cc(C2([S@](C)(=N)=O)CC2)nc(-c2cc[nH]c3nccc2-3)n1")
"1 (yes)"
>>> answer_label("CCc1c2c(nc3ccc(O)cc13)-c1cc3c(c(=O)n1C2)COC(=O)[C@]3(O)CC")
"0 (no)"
>>> answer_label("O=C(c1ccc(F)c(F)c1Nc1ccc(I)cc1F)N1CC(O)([C@@H]2CCCCN2)C1")
"0 (no)"
>>> answer_label("COc1cc2c(Oc3ccc4[nH]c(C)cc4c3F)ncnc2cc1OCCCN1CCCC1")
"1 (yes)"
>>> answer_label("CC(C)(C(=O)NCC(F)(F)C(F)(F)F)C(=O)N[C@@H]1C(=O)Nc2ccccc2-c2ccccc21")
"0 (no)"
